Please consider the recorded pIC50 for Cathepsin D (Homo sapiens (Human), UniProt P07339) in what follows.
// field semantics: pIC50 = negative decimal log of concentration (mol/L)

Worked examples follow.
Tested on Cathepsin D (Homo sapiens (Human), UniProt P07339), the item "COc1cnc(C(=O)Nc2ccc3c(c2)[C@@]2(CCSC(N)=N2)c2cc(C4=CCCOC4)nc(F)c2O3)cn1" showed pIC50 equal to 3.75

Tested on Cathepsin D (Homo sapiens (Human), UniProt P07339), the item "NC1=N[C@@]2(CCO1)c1cc(NC(=O)c3ccc(Cl)cn3)ccc1Oc1cnc(-c3ccnc(F)c3)cc12" showed pIC50 equal to 3.40

Tested on Cathepsin D (Homo sapiens (Human), UniProt P07339), the item "COc1cc(F)c2c(c1)[C@]1(CCOC(N)=N1)c1cc(NC(=O)c3cnc(OC)cn3)ccc1O2" showed pIC50 equal to 3.40

Tested on Cathepsin D (Homo sapiens (Human), UniProt P07339), the item "COc1ccc(C(=O)Nc2ccc3c(c2)[C@@]2(CCSC(N)=N2)c2cc(-c4cncc(F)c4)nc(F)c2O3)nc1" showed pIC50 equal to 3.92

Continuing:
Tested on Cathepsin D (Homo sapiens (Human), UniProt P07339), the item "Cc1cccnc1Nc1ccc2c(c1)[C@@]1(CCOC(N)=N1)c1cc(Cl)nc(F)c1O2" showed pIC50 equal to 3.41

Tested on Cathepsin D (Homo sapiens (Human), UniProt P07339), the item "NC1=N[C@@]2(CCO1)c1cc(NC(=O)c3ccc(Cl)cn3)ccc1Oc1c2cc(-c2ccnc(F)c2)nc1F" showed pIC50 equal to 3.40

Tested on Cathepsin D (Homo sapiens (Human), UniProt P07339), the item "Cc1nc(C(=O)Nc2ccc3c(c2)[C@@]2(CCOC(N)=N2)c2cc(-c4cncc(F)c4)nc(F)c2O3)cs1" showed pIC50 equal to 3.44

Tested on Cathepsin D (Homo sapiens (Human), UniProt P07339), the item "COc1ccc(C(=O)Nc2ccc3c(c2)[C@@]2(CCOC(N)=N2)c2cc(-c4ccnc(F)c4)nc(F)c2O3)nc1" showed pIC50 equal to 3.40

Tested on Cathepsin D (Homo sapiens (Human), UniProt P07339), the item "NC1=N[C@@]2(CCS1)c1cc(NC(=O)c3ncc(Cl)cc3F)ccc1Oc1c2cc(C2=CCOCC2)nc1F" showed pIC50 equal to 3.51

Tested on Cathepsin D (Homo sapiens (Human), UniProt P07339), the item "NC1=N[C@@]2(CCO1)c1cc(NC(=O)c3ccc(Cl)cn3)ccc1Oc1cnc(C3CC3)cc12" showed pIC50 equal to 3.40

Tested on Cathepsin D (Homo sapiens (Human), UniProt P07339), the item "COc1cnc(C(=O)Nc2ccc3c(c2)[C@@]2(CCSC(N)=N2)c2cc(C4=CCOCC4)cc(F)c2O3)cn1" showed pIC50 equal to 3.76

Tested on Cathepsin D (Homo sapiens (Human), UniProt P07339), the item "N#Cc1ccc(C(=O)Nc2ccc3c(c2)[C@@]2(CCOC(N)=N2)c2cc(-c4cncc(F)c4)nc(F)c2O3)nc1" showed pIC50 equal to 3.88
